Would you mind telling me the reported total protein half-life in vivo of each entry?
- ASSAY_REMARKS: total protein half-life in vivo (active degradation + dilution); higher = more stable protein
- RECORDED_CONDITIONS: E. coli NCM3722 delta-lon; growth: N-lim chemostat; doubling time 6 h
Kindly provide the numeric value in h only, without the unit symbol.

What value of measured total protein half-life in vivo is listed for MSQIFAYCRISTLDQTTENQRREIESAGFKIKPQQIIEEHISGSAATSERPGFNRLLARLKCGDQLIVTKLDRLGCNAMDIRKTVEQLTETGIRVHCLALGGIDLTSPTGKMMMQVISAVAEFERDLLLERTHSGIVRARGAGKRFGRPPVLNEEQKQAVFERIKSGVSISAIAREFKTSRQTILRAKAKLQTPDI ? 3.81

Which total protein half-life in vivo value belongs to MAKSLFRALVALSFLAPLWLNAAPRVITLSPANTELAFAAGITPVGVSSYSDYPPQAQKIEQVSTWQGMNLERIVALKPDLVIAWRGGNAERQVDQLASLGIKVMWVDATSIEQIANALRQLAPWSPQPDKAEQAAQSLLDQYAQLKAQYADKPKKRVFLQFGINPPFTSGKESIQNQVLEVCGGENIFKDSRVPWPQVSREQVLARSPQAIVITGGPDQIPKIKQYWGEQLKIPVIPLTSDWFERASPRIILAAQQLCNALSQVD ? 5.93

Reported total protein half-life in vivo, sequence MSIEIANIKKSFGRTQVLNDISLDIPSGQMVALLGPSGSGKTTLLRIIAGLEHQTSGHIRFHGTDVSRLHARDRKVGFVFQHYALFRHMTVFDNIAFGLTVLPRRERPNAAAIKAKVTKLLEMVQLAHLADRYPAQLSGGQKQRVALARALAVEPQILLLDEPFGALDAQVRKELRRWLRQLHEELKFTSVFVTHDQEEATEVADRVVVMSQGNIEQADAPDQVWREPATRFVLEFMGEVNRLQGTIRGGQFHVGAHRWPLGYTPAYQGPVDLFLRPWEVDISRRTSLDSPLPVQVLEASPKGHYTQLVVQPLGWYNEPLTVVMHGDDAPQRGERLFVGLQHARLYNGDERIETRDEELALAQSA : ____ 2.01

----------
Kindly state total protein half-life in vivo for each of the entries shown.
- ASSAY_REMARKS: total protein half-life in vivo (active degradation + dilution); higher = more stable protein
- RECORDED_CONDITIONS: E. coli NCM3722 delta-hslV; growth: N-lim chemostat; doubling time 6 h
# answer = value followed by unit

For the sequence MKKNQFLKESDVTAESVFFMKRRQVLKALGISATALSLPHAAHADLLSWFKGNDRPPAPAGKALEFSKPAAWQNNLPLTPADKVSGYNNFYEFGLDKADPAANAGSLKTDPWTLKISGEVAKPLTLDHDDLTRRFPLEERIYRMRCVEAWSMVVPWIGFPLHKLLALAEPTSNAKYVAFETIYAPEQMPGQQDRFIGGGLKYPYVEGLRLDEAMHPLTLMTVGVYGKALPPQNGAPVRLIVPWKYGFKGIKSIVSIKLTRERPPTTWNLAAPDEYGFYANVNPYVDHPRWSQATERFIGSGGILDVQRQPTLLFNGYAAQVASLYRGLDLRENF , what total protein half-life in vivo is on record? 5.75 h

So what's the measured total protein half-life in vivo for this one? MRLDKFIAQQLGVSRAIAGREIRGNRVTVDGEIVRNAAFKLLPEHDVAYDGNPLAQQHGPRYFMLNKPQGYVCSTDDPDHPTVLYFLDEPVAWKLHAAGRLDIDTTGLVLMTDDGQWSHRITSPRHHCEKTYLVTLESPVADDTAEQFAKGVQLHNEKDLTKPAVLEVITPTQVRLTISEGRYHQVKRMFAAVGNHVVELHRERIGGITLDADLAPGEYRPLTEEEIASVV [P0AA43] 3.68 h

Name the reported total protein half-life in vivo value associated with the sequence MPLLKLWAGSLVMLAAVSLPLQAASPVKVGSKIDTEGALLGNIILQVLESHGVPTVNKVQLGTTPVVRGAITSGELDIYPEYTGNGAFFFKDENDAAWKNAQQGYEKVKKLDSEHNKLIWLTPAPANNTWTIAVRQDVAEKNKLTSLADLSRYLQEGGTFKLAASAEFIERADALPAFEKAYGFKLGQDQLLSLAGGDTAVTIKAAAQQTSGVNAAMAYGTDGPVAALGLQTLSDPQGVQPIYAPAPVVRESVLREYPQMAQWLQPVFASLDAKTLQQLNASIAVEGLDAKKVAADYLKQKGWTK 6.28 h

Please look up its total protein half-life in vivo: MKKLKLHGFNNLTKSLSFCIYDICYAKTAEERDGYIAYIDELYNANRLTEILSETCSIIGANILNIARQDYEPQGASVTILVSEEPVDPKLIDKTEHPGPLPETVVAHLDKSHICVHTYPESHPEGGLCTFRADIEVSTCGVISPLKALNYLIHQLESDIVTIDYRVRGFTRDINGMKHFIDHEINSIQNFMSDDMKALYDMVDVNVYQENIFHTKMLLKEFDLKHYMFHTKPEDLTDSERQEITAALWKEMREIYYGRNMPAV [P0A7F6] 3.29 h

Fill in: total protein half-life in vivo of MTNLNYQQTHFVMSAPDIRHLPSDTGIEVAFAGRSNAGKSSALNTLTNQKSLARTSKTPGRTQLINLFEVADGKRLVDLPGYGYAEVPEEMKRKWQRALGEYLEKRQSLQGLVVLMDIRHPLKDLDQQMIEWAVDSNIAVLVLLTKADKLASGARKAQLNMVREAVLAFNGDVQVETFSSLKKQGVDKLRQKLDTWFSEMQPVEETQDGE [P0A6P7] is ___ 5.05 h

For the sequence MRILLIEDDMLIGDGIKTGLSKMGFSVDWFTQGRQGKEALYSAPYDAVILDLTLPGMDGRDILREWREKGQREPVLILTARDALAERVEGLRLGADDYLCKPFALIEVAARLEALMRRTNGQASNELRHGNVMLDPGKRIATLAGEPLTLKPKEFALLELLMRNAGRVLSRKLIEEKLYTWDEEVTSNAVEVHVHHLRRKLGSDFIRTVHGIGYTLGEK , what total protein half-life in vivo is on record? 4.1 h
